Known melting point of a selection of compounds
PARAMETER: melting point

# COMPOUND, OBS VALUE
rows = [
    ("Cc1ccc(-c2cnc(C#Cc3ccc(C)s3)s2)cc1", "101 to 103 °C"),
    ("CC(=O)NCC(=O)N1CC(=O)NC1(C)C", "214 to 215 °C"),
    ("Cc1ccc2c(c1)nnn2C(=O)N1CCOCC1", "81 to 82 °C"),
    ("ClC=C(c1ccc(Cl)cc1)c1ccc(Cl)cc1", "65 to 67 °C"),
    ("Ic1ccc(OC2CCCCO2)cc1 (configuration not stated)", "66 °C"),
    ("O=C(O)Cc1cc([N+](=O)[O-])ccc1Sc1ccccc1", "138 to 140 °C"),
    ("CCC(CC)(CO)CS(N)(=O)=O", "66 to 68 °C"),
    ("Cc1csc2c1cc(C(=O)c1ccccc1)n2CC(=O)O", "197 °C"),
    ("COc1ccc(N=Nc2ccc(O)c(C(=O)Nc3ccc(OC)c(-c4n[nH]c5cc(C)nn45)c3)c2)cc1", "295 to 296 °C"),
    ("O=C(CCl)NCc1c(O)c(I)cc2c1CCCC2", "119 to 125 °C"),
    ("CS(=O)(=O)OCCCCCCc1ccc(OCc2coc(/C=C/c3ccccc3)n2)cc1", "88 to 89 °C"),
    ("CC(=C=CC(=O)O)c1ccc(Cl)cc1", "146 to 148 °C"),
    ("CC(=O)NC[C@H]1CN(c2ccc(N3CCC(Cc4nnc(N)s4)CC3)c(F)c2)C(=O)O1", "206 to 207 °C"),
    ("CCn1c2ccccc2c2oc(C(=O)Cl)cc21", "127 to 129 °C"),
    ("O=C(NCCCC(NC(=O)c1ccccc1)C(O)C(F)(F)F)c1ccccc1 (configuration not stated)", "103 °C"),
    ("Cc1nc[nH]c1CSCCN=C(NC#N)NCCSCc1[nH]cnc1C", "92 to 95 °C"),
    ("Cc1cc(C)c(Cc2ccc(C(C)C)cc2)c(OCC(=O)O)c1", "104 to 105 °C"),
    ("Cc1ccc(S(=O)(=O)N2[C@@H](C(=N)NO)CC[C@H]2c2ccc(F)cc2)cc1 (racemic)", "217 °C"),
    ("O=C(NCc1ccc(Cl)cc1)c1cnc2c(OCCO)cc(CCCO)cc2c1O", "250 to 252 °C"),
    ("O=[N+]([O-])c1cccc(OCc2csc(-c3ccccc3)n2)c1", "112 to 114 °C"),
    ("COCCOCC(=O)C1CCC2C3CCC4CC(O)CCC4(C)C3C(=O)CC12C (configuration not stated)", "115 to 121 °C"),
    ("COC(=O)C1C(=O)CC(=O)CC1C (configuration not stated)", "122 to 123 °C"),
]
